Target: mSTING-wt (Mus musculus, UniProt Q3TBT3)
Sequence (Q3TBT3 whole entry): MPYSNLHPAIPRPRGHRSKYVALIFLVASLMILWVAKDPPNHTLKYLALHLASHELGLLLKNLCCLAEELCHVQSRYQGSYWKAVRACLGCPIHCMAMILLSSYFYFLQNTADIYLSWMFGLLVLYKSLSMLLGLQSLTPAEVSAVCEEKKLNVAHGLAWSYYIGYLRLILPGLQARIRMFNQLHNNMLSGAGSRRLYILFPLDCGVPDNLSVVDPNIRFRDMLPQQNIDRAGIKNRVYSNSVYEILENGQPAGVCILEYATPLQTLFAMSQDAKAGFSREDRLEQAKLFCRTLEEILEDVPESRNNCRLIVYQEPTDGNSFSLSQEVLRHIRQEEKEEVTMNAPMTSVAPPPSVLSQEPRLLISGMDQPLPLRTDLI
Assay: Cellular Functional Assay I: ISRE-SEAP reporter in HEK-293T-Dual Null cells transfected with mouse STING
Assay type: cell-based
Conditions: SEAP reporter, HEK-293T-Dual Null, mSTING-wt; read-out: EC50 mSTING-wt
pEC50: −log10 of the molar value. Structures can show the parent of a compound that is named as a salt.
measurement name: pEC50

CCn1nc(C)cc1C(=O)Nc1nc2cc(C(N)=O)cnc2n1C/C=C/Cn1c(NC(=O)c2cc(C)nn2CC)nc2cc(C(N)=O)cc(OCCCNCCOC(F)F)c21 :: 6.30 to 9.00
CCn1nc(C)cc1C(=O)Nc1nc2cc(C(N)=O)sc2n1C/C=C/CNC(=O)OC(C)(C)C :: < 6.30
CCn1nc(C)cc1C(=O)Nc1nc2cc(C(N)=O)cnc2n1C/C=C/CNC(=O)OC(C)(C)C :: < 6.30
CCn1nc(C)cc1C(=O)Nc1nc2cc(C(N)=O)cnc2n1C/C=C/Cn1c(NC(=O)c2cc(C)nn2CC)nc2cc(C(N)=O)cc(OC)c21 :: > 9.00
CCn1nc(C)cc1C(=O)Nc1nc2cc(C(N)=O)cnc2n1C/C=C/Cn1c(NC(=O)c2cc(C)nn2CC)nc2cc(C(N)=O)cnc21 :: 6.30 to 9.00
CCn1nc(C)cc1C(=O)Nc1nc2cc(C(N)=O)cnc2n1C/C=C/Cn1c(NC(=O)c2cc(C)nn2CC)nc2cc(C(N)=O)cc(C)c21.Cl.Cl.Cl.Cl :: 6.30 to 9.00
CCn1nc(C)cc1C(=O)Nc1nc2cc(C(N)=O)cnc2n1C/C=C/Cn1c(NC(=O)c2cc(C)nn2CC)nc2cc(C(N)=O)cc(OCCCN3CCC[C@H]3COC(F)F)c21 :: 6.30 to 9.00
CCn1nc(C)cc1C(=O)Nc1nc2cc(C(N)=O)cnc2n1CCCCNC(=O)OCc1ccccc1 :: < 6.30
CCn1nc(C)cc1C(=O)Nc1nc2cc(C(N)=O)cnc2n1C/C=C/Cn1c(NC(=O)c2cc(C)nn2CC)nc2cc(C(N)=O)cc(OCCCNC)c21 :: 6.30 to 9.00
CCn1nc(C)cc1C(=O)Nc1nc2cc(C(N)=O)cc(C)c2n1C/C=C/Cn1c(NC(=O)c2cnc(C)s2)nc2cc(C(N)=O)cnc21 [Compound C, Hydrochloride] :: < 6.30
CCn1nc(C)cc1C(=O)Nc1nc2cc(C(N)=O)cnc2n1C/C=C/Cn1c(NC(=O)c2cc(C)nn2CC)nc2cc(C(N)=O)cc(OCCCN3CCN(C(C)=O)CC3)c21 :: 6.30 to 9.00
CCn1nc(C)cc1C(=O)Nc1nc2cc(C(N)=O)ccc2n1C/C=C/Cn1c(NC(=O)c2cc(C)nn2CC)nc2cc(C(N)=O)sc21 :: 6.30 to 9.00

###

Attribute: pEC50
Molecular target: hSTING-HAQ (Homo sapiens, UniProt Q86WV6, G230A/H232R/R293Q/R71H)
Sequence (Q86WV6 whole entry R71H/G230A/H232R/R293Q): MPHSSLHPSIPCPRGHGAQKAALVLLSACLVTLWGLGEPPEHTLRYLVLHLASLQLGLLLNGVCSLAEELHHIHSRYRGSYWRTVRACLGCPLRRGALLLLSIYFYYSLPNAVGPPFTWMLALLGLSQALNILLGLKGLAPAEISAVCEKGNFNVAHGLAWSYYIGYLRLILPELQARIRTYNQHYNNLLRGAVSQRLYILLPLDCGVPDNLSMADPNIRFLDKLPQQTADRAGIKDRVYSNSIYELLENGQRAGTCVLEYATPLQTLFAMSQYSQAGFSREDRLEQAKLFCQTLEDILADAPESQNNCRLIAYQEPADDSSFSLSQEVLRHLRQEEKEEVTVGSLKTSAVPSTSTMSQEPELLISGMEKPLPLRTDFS
Assay: Cellular Functional Assay I: ISRE-SEAP reporter in HEK-293T-Dual Null cells transfected with hSTING-HAQ
Details: HEK-293T-Dual Null, hSTING-HAQ
pEC50: −log10 of the molar value. Where a name gives a salt, the structure may show the parent alone.
measurement name: pEC50

CCn1nc(C)cc1C(=O)Nc1nc2cc(C(N)=O)cnc2n1C/C=C/Cn1c(NC(=O)c2cc(C)nn2CC)nc2cc(C(N)=O)cc(OCCCNC)c21 :: 6.30 to 9.00
CCn1nc(C)cc1C(=O)Nc1nc2cc(C(N)=O)cnc2n1C/C=C/CNC(=O)OC(C)(C)C :: < 6.30
CCn1nc(C)cc1C(=O)Nc1nc2cc(C(N)=O)cnc2n1C/C=C/Cn1c(NC(=O)c2cc(C)nn2CC)nc2cc(C(N)=O)cc(OCCCN3CCCOCC3)c21 :: 6.30 to 9.00
CCn1nc(C)cc1C(=O)Nc1nc2cc(C(N)=O)ccc2n1C/C=C/Cn1c(NC(=O)c2cc(C)nn2CC)nc2cc(C(N)=O)sc21 :: < 6.30
CCn1nc(C)cc1C(=O)Nc1nc2cc(C(N)=O)cnc2n1C/C=C/Cn1c(NC(=O)c2cc(C)nn2CC)nc2cc(C(N)=O)cc(OCCCNCCOC(F)F)c21 :: 6.30 to 9.00
CCn1nc(C)cc1C(=O)Nc1nc2cc(C(N)=O)cnc2n1CCCCNC(=O)OC(C)(C)C :: < 6.30
CCn1nc(C)cc1C(=O)Nc1nc2cc(C(N)=O)cnc2n1C/C=C/Cn1c(NC(=O)c2cc(C)nn2CC)nc2cc(C(N)=O)cc(OCCCN3CCOCC3)c21 :: 6.30 to 9.00
CCn1nc(C)cc1C(=O)Nc1nc2cc(C(N)=O)cc(C)c2n1C/C=C/Cn1c(NC(=O)c2cnc(C)s2)nc2cc(C(N)=O)cnc21 [Compound C, Hydrochloride] :: < 6.30
CCn1nc(C)cc1C(=O)Nc1nc2cc(C(N)=O)sc2n1C/C=C/CNC(=O)OC(C)(C)C :: < 6.30
CCn1nc(C)cc1C(=O)Nc1nc2cc(C(N)=O)cnc2n1C/C=C/Cn1c(NC(=O)c2cc(C)nn2CC)nc2cc(C(N)=O)cc(OCCCN3CCN(C(C)=O)CC3)c21 :: 6.30 to 9.00
CCn1nc(C)cc1C(=O)Nc1nc2cc(C(N)=O)cnc2n1C/C=C/Cn1c(NC(=O)c2cc(C)nn2CC)nc2cc(C(N)=O)cc(OCCCN(C)C)c21 :: 6.30 to 9.00
CCn1nc(C)cc1C(=O)Nc1nc2cc(C(N)=O)cnc2n1C/C=C/Cn1c(NC(=O)c2cc(C)nn2CC)nc2cc(C(N)=O)cc(OC)c21 :: 6.30 to 9.00
CCn1nc(C)cc1C(=O)Nc1nc2cc(C(N)=O)cnc2n1C/C=C/CNC(=O)OCc1ccccc1 :: < 6.30
CCn1nc(C)cc1C(=O)Nc1nc2cc(C(N)=O)cnc2n1CCCCNC(=O)OCc1ccccc1 :: < 6.30
CCn1nc(C)cc1C(=O)Nc1nc2cc(C(N)=O)cnc2n1C/C=C/Cn1c(NC(=O)c2cc(C)nn2CC)nc2cc(C(N)=O)cc(C)c21.Cl.Cl.Cl.Cl :: 6.30 to 9.00
CCn1nc(C)cc1C(=O)Nc1nc2cc(C(N)=O)cnc2n1C/C=C/Cn1c(NC(=O)c2cc(C)nn2CC)nc2cc(C(N)=O)cc(OCCCN3CCC[C@H]3COC(F)F)c21 :: 6.30 to 9.00
CCn1nc(C)cc1C(=O)Nc1nc2cc(C(N)=O)sc2n1C/C=C/Cn1c(NC(=O)c2cc(C)nn2CC)nc2cc(C(N)=O)cc(OCCOC(F)F)c21 :: < 6.30
CCn1nc(C)cc1C(=O)Nc1nc2cc(C(N)=O)cnc2n1C/C=C/Cn1c(NC(=O)c2cc(C)nn2CC)nc2cc(C(N)=O)cnc21 :: < 6.30
[2H]C1([2H])OC([2H])([2H])C([2H])([2H])N(CCCOc2cc(C(N)=O)cc3nc(NC(=O)c4cc(C)nn4CC)n(C/C=C/Cn4c(NC(=O)c5cc(C)nn5CC)nc5cc(C(N)=O)cnc54)c23)C1([2H])[2H] :: 6.30 to 9.00
CCn1nc(C)cc1C(=O)Nc1nc2cc(C(N)=O)cnc2n1C/C=C/Cn1c(NC(=O)c2cc(C)nn2CC)nc2cc(C(N)=O)cc(OCCCO)c21 :: 6.30 to 9.00
CCn1nc(C)cc1C(=O)Nc1nc2cc(C(N)=O)cnc2n1C/C=C/Cn1c(NC(=O)c2cc(C)nn2CC)nc2cc(C(N)=O)cc(OCCCN(C)CCOC)c21 :: 6.30 to 9.00

###

Target: hSTING-H232 (Homo sapiens, UniProt Q86WV6)
Sequence (Q86WV6 whole entry): as the sequence (Q86WV6 whole entry R71H/G230A/H232R/R293Q) above, with H71R, A230G, R232H, Q293R counted along it
Test: Cellular Functional Assay I: ISRE-SEAP reporter in HEK-293T-Dual Null cells transfected with hSTING-H232
Settings: HEK-293T-Dual Null, hSTING-H232
measurement name: EC50

CCn1nc(C)cc1C(=O)Nc1nc2cc(C(N)=O)cnc2n1CCCCNC(=O)OCc1ccccc1 [Compound G] :: > 500 nM
CCn1nc(C)cc1C(=O)Nc1nc2cc(C(N)=O)cnc2n1C/C=C/Cn1c(NC(=O)c2cc(C)nn2CC)nc2cc(C(N)=O)cc(OCCCN3CCOCC3)c21 [Compound T] :: 1 to 500 nM
CCn1nc(C)cc1C(=O)Nc1nc2cc(C(N)=O)cnc2n1CCCCNC(=O)OC(C)(C)C [Compound E] :: > 500 nM
CCn1nc(C)cc1C(=O)Nc1nc2cc(C(N)=O)cnc2n1C/C=C/CNC(=O)OC(C)(C)C [Compound D] :: > 500 nM
CCn1nc(C)cc1C(=O)Nc1nc2cc(C(N)=O)cnc2n1C/C=C/Cn1c(NC(=O)c2cc(C)nn2CC)nc2cc(C(N)=O)cc(OCCCN3CCC[C@H]3COC(F)F)c21 [Compound Y] :: < 1 nM
CCn1nc(C)cc1C(=O)Nc1nc2cc(C(N)=O)cnc2n1C/C=C/Cn1c(NC(=O)c2cc(C)nn2CC)nc2cc(C(N)=O)cc(OCCCN3CCCOCC3)c21 [Compound Z] :: 1 to 500 nM

Every entry's value here was drawn from patent US20200031825A1.
